These measurements were taken from paper PMC5177656.

substrate: O=CC(O)COP(=O)(O)O; test: coupled assay with alpha-glycerophosphate dehydrogenase, NADH consumption; type: biochemical, Arabidopsis thaliana; details: pH 7.8, 30°C, 100 mM Tris-Cl, 5 mM DTT, GAP 0-4 mM (from DL-GAP)
A collection of proteins and their measured kcat/Km
Report only the number, with the unit M⁻¹ s⁻¹ understood.

Use the examples below as a reference point.
[
  {
    "protein": "cTPI (cytosolic triosephosphate isomerase) (Arabidopsis thaliana; C127S) (protein, tag removal not mentioned) MARKFFVGGNWKCNGTAEEVKKIVNTLNEAQVPSQDVVEVVVSPPYVFLPLVKSTLRSDFFVAAQNCWVKKGGAFTGEVSAEMLVNLDIPWVILGHSERRAILNESSEFVGDKVAYALAQGLKVIASVGETLEEREAGSTMDVVAAQTKAIADRVTNWSNVVIAYEPVWAIGTGKVASPAQAQEVHDELRKWLAKNVSADVAATTRIIYGGSVNGGNCKELGGQADVDGFLVGGASLKPEFIDIIKAAEVKKSA",
    "test-readout": "kcat/Km",
    "test-result": 147000
  },
  {
    "protein": "cTPI (cytosolic triosephosphate isomerase) (Arabidopsis thaliana) (protein, tag removal not mentioned) MARKFFVGGNWKCNGTAEEVKKIVNTLNEAQVPSQDVVEVVVSPPYVFLPLVKSTLRSDFFVAAQNCWVKKGGAFTGEVSAEMLVNLDIPWVILGHSERRAILNESSEFVGDKVAYALAQGLKVIACVGETLEEREAGSTMDVVAAQTKAIADRVTNWSNVVIAYEPVWAIGTGKVASPAQAQEVHDELRKWLAKNVSADVAATTRIIYGGSVNGGNCKELGGQADVDGFLVGGASLKPEFIDIIKAAEVKKSA",
    "test-readout": "kcat/Km",
    "test-result": "2.58e+06"
  },
  {
    "protein": "cTPI (cytosolic triosephosphate isomerase) (Arabidopsis thaliana; C218S) (protein, tag removal not mentioned) MARKFFVGGNWKCNGTAEEVKKIVNTLNEAQVPSQDVVEVVVSPPYVFLPLVKSTLRSDFFVAAQNCWVKKGGAFTGEVSAEMLVNLDIPWVILGHSERRAILNESSEFVGDKVAYALAQGLKVIACVGETLEEREAGSTMDVVAAQTKAIADRVTNWSNVVIAYEPVWAIGTGKVASPAQAQEVHDELRKWLAKNVSADVAATTRIIYGGSVNGGNSKELGGQADVDGFLVGGASLKPEFIDIIKAAEVKKSA",
    "test-readout": "kcat/Km",
    "test-result": "1.6e+06"
  }
]

Request: If you can, please state the reported kcat/Km value of cTPI (cytosolic triosephosphate isomerase) (Arabidopsis thaliana; C127S/C218S) (protein, tag removal not mentioned) MARKFFVGGNWKCNGTAEEVKKIVNTLNEAQVPSQDVVEVVVSPPYVFLPLVKSTLRSDFFVAAQNCWVKKGGAFTGEVSAEMLVNLDIPWVILGHSERRAILNESSEFVGDKVAYALAQGLKVIASVGETLEEREAGSTMDVVAAQTKAIADRVTNWSNVVIAYEPVWAIGTGKVASPAQAQEVHDELRKWLAKNVSADVAATTRIIYGGSVNGGNSKELGGQADVDGFLVGGASLKPEFIDIIKAAEVKKSA .
Response: 29600
